# Species: Danio rerio
# assay-notes: Antiinflammatory activity in transgenic zebrafish larvae harboring Fli-1 gene assessed as LPS-stimulated leukocyte migration to injury zone of tail transected larvae at 3 uM after 20 to 22 hrs by microscopy
# Assay type: functional
Ratio: recorded values

item-smiles	Ratio
O=c1[nH]n(Cc2ccccc2CCl)c2ccc([N+](=O)[O-])cc12	0.78
Cn1c2ccc([N+](=O)[O-])cc2c(=O)n1Cc1ccccc1	0.67
Cn1c(=O)c2cc([N+](=O)[O-])ccc2n1Cc1ccccc1	0.6
O=c1[nH]n(Cc2ccccc2)c2ccc([N+](=O)[O-])cc12	0.67
COc1ccc(Cn2[nH]c(=O)c3cc([N+](=O)[O-])ccc32)cc1	0.87
O=c1[nH]n(Cc2ccccc2Cl)c2ccc([N+](=O)[O-])cc12	0.78

====

MTD: recorded values
# Organism: Danio rerio
# assay-notes: Toxicity in transgenic zebrafish larvae harboring Fli-1 gene assessed as maximum tolerated dosage after 24 hrs
# Assay type: organism-based
# cond: in vivo

molecule	inequality-symbol	MTD [µM]
O=c1[nH]n(Cc2ccccc2-c2ccccc2Cn2[nH]c(=O)c3cc([N+](=O)[O-])ccc32)c2ccc([N+](=O)[O-])cc12	=	10
O=c1c2cccnc2n2n1Cc1ccccc1C2	=	30
O=c1[nH]n(Cc2ccccc2O)c2ccc([N+](=O)[O-])cc12	>	100
O=c1[nH]n(Cc2ccccc2Cl)c2ccc([N+](=O)[O-])cc12	=	30
O=c1c2cc([N+](=O)[O-])ccc2n(Cc2ccccc2)n1Cc1ccccc1	=	10
O=c1[nH]n(Cc2ccccc2)c2ccc([N+](=O)[O-])cc12	=	10
O=c1[nH]n(Cc2ccccn2)c2ccc([N+](=O)[O-])cc12	>	100
O=c1[nH]n(Cc2cccc(Cn3[nH]c(=O)c4cc([N+](=O)[O-])ccc43)c2)c2ccc([N+](=O)[O-])cc12	=	10
O=C1Nc2cc([N+](=O)[O-])ccc2N2Cc3ccccc3CC12 (stereo unspecified)	=	10
O=[N+]([O-])c1ccc2c(c1)CC([O-])=N[N+]21CCCCC1	>	100
O=c1[nH]n(Cc2ccccc2F)c2ccccc12	=	30
CN(C)CCCOc1nn(Cc2ccccc2F)c2ccc([N+](=O)[O-])cc12	=	30
COc1ccc(Cn2[nH]c(=O)c3cc([N+](=O)[O-])ccc32)cc1	=	10
O=c1c2cc([N+](=O)[O-])ccc2[nH]n1Cc1ccccn1	>	100
COc1nn(Cc2ccccc2-c2ccccc2Cn2nc(OC)c3cc([N+](=O)[O-])ccc32)c2ccc([N+](=O)[O-])cc12	=	10
CCOCc1ccccc1CCN1CC(=O)Nc2cc([N+](=O)[O-])ccc21	=	10
O=C(NCc1cc([N+](=O)[O-])ccc1N1CCc2ccccc2C1)NCc1cc([N+](=O)[O-])ccc1N1CCc2ccccc2C1	=	10
O=C1C2=Cc3ccccc3CCN2c2ccccc21	=	3
O=c1[nH]n(Cc2ccccc2F)c2ccc([N+](=O)[O-])cc12	=	10
Cn1c2ccc([N+](=O)[O-])cc2c(=O)n1Cc1ccccc1	=	30
O=C(Cc1cc([N+](=O)[O-])ccc1F)NN1Cc2ccccc2C1	>	100

====

# Tested on: J774
# assay-notes: Cytotoxicity against mouse J774 cells at 1 ug/mL after 24 hrs by MTT assay
# Type: functional
measurement-name: Activity (%)

item-smiles	subject-of-test	measurement-name	test-result
Cn1c(=O)c2cc([N+](=O)[O-])ccc2n1Cc1ccccc1	J774	Activity	32.8
O=[N+]([O-])c1ccc2[nH]nc(OCc3ccccc3Cl)c2c1	J774	Activity	4.4
Cn1c2ccc([N+](=O)[O-])cc2c(=O)n1Cc1ccccc1	J774	Activity	11.5
O=C1C2=Cc3ccccc3CCN2c2ccccc21	J774	Activity	3.4
